The reported measurements were obtained from PubChem BioAssay AID330.

Some compounds, each annotated with its measured T/C.
# Tested on: P388 leukemia ip, CD2F1 mice, survival T/C
# method: NCI In Vivo Anticancer Drug Screen. Data for tumor model P388 Leukemia (intraperitoneal) in CD2F1 (CDF1) mice
# test-settings: endpoint: median survival time; dose: 60.0 mg/kg/injection; schedule: Q01DX005 (ip); vehicle: saline with Tween-80; higher = longer survival
Inconclusive results and toxic doses are left out.

Example entries and their recorded answers appear below.
compound	reported-endpoint	result
CN(C)/C=C/C(=O)c1ccccc1	T/C	107 % of control
Cc1ccccc1NC(=O)C1C(=O)N(c2ccccc2C)C(=O)/C1=N/O (stereo unspecified)	T/C	99 % of control

Determine from records and report T/C for `COc1ccc(Cc2coc3ccccc3c2=O)cc1` 102 % of control

###

Some compounds, each annotated with its measured T/C.
# Test system: P388 leukemia ip, CD2F1 mice, survival T/C
# method: NCI In Vivo Anticancer Drug Screen. Data for tumor model P388 Leukemia (intraperitoneal) in CD2F1 (CDF1) mice
# test-settings: endpoint: median survival time; dose: 100.0 mg/kg/injection; schedule: Q01DX009 (ip); vehicle: Klucel (hydroxypropylcellulose) (HPC); higher = longer survival
# Method: The antitumor activity of compounds was measured in mice bearing transplantable tumors. Survival or tumor size were measured and the results are expressed as the measurement made in the treated group (T) divided by the measurement made in the vehicle treated control group (C). The tumor model used in this assay is P388 Leukemia (intraperitoneal) in CD2F1 (CDF1) mice
Inconclusive results and toxic doses are left out.

Example entries and their recorded answers appear below.
compound	T/C
O=NN(Cc1ccc(Cl)cc1)NC1=NCCN1	99 % of control
C=C(C)C(=O)OCCOc1ccc(/C=N/N=c2/sc3ccccc3n2C)cc1OC	97 % of control
O=C1NC(=O)N2CCCOC2C1c1ccccc1 (stereo unspecified)	99 % of control
O=c1oc2ccccc2cc1-c1ccc(Br)c2ccccc12	100 % of control
CC(=O)NCCSc1nc(-c2ccccc2)c(-c2ccccc2)o1	104 % of control
N#Cc1ccc(N2C(=O)c3ccc(C(O)(C(F)(F)F)C(F)(F)F)cc3C2=O)cc1C#N	103 % of control

Determine from records and report T/C for `O=C(O)c1ccc(Cl)c(Cl)c1` 108 % of control

Determine from records and report T/C for FC(F)(F)c1cccc(OCC2CO2)c1 (stereo unspecified) 99 % of control

Determine from records and report T/C for CN(C(=O)c1ccc(N)cc1)C1CCN(C2CCCCC2)C1 (stereo unspecified) 101 % of control

Determine from records and report T/C for `O=C1Nc2ccc(Br)cc2/C1=C/C(=O)c1ccccc1` 101 % of control

Determine from records and report T/C for CCCCCCCCCOCC(O)CCl (stereo unspecified) 98 % of control

###

Some compounds, each annotated with its measured T/C.
# Test system: P388 leukemia ip, CD2F1 mice, survival T/C
# method: NCI In Vivo Anticancer Drug Screen. Data for tumor model P388 Leukemia (intraperitoneal) in CD2F1 (CDF1) mice
# test-settings: endpoint: median survival time; dose: 200.0 mg/kg/injection; schedule: Q01DX009 (ip); vehicle: saline with Tween-80; higher = longer survival
Toxic doses and inconclusive results are not listed.

Example entries and their recorded answers appear below.
compound	tested-target	T/C
CC1(C)CC2(C)OC2C2(C1)N=NC(=Nc1ccccc1)O2 (stereo not drawn)	P388 leukemia ip, CD2F1 mice, survival T/C	108 % of control
CCOCC1COc2c(cc3[nH]cc(C(=O)O)c(=O)c3c2Cl)O1 (stereo not drawn)	P388 leukemia ip, CD2F1 mice, survival T/C	95 % of control

Determine from records and report T/C for `CC(C)=CC(=O)C1=C(O)C(=O)OC1` 107 % of control

Determine from records and report T/C for `Cc1ccccc1N=Cc1ccc(N(C)C)cc1` 87 % of control

Determine from records and report T/C for `CC(C)(Oc1ccc(C(=O)c2ccc(Cl)c(Cl)c2)cc1)C(=O)O` 107 % of control

Determine from records and report T/C for `O=C(/C=C/c1cccc([N+](=O)[O-])c1)c1ccccc1` 92 % of control

Determine from records and report T/C for `CCCCCCNC(=O)CNC(=O)C=[N+]=[N-]` 97 % of control

Determine from records and report T/C for `CN(C)P(=O)(N(C)C)N1CCCCCC1` 94 % of control

Determine from records and report T/C for `O=[N+]([O-])c1ccccc1SSc1ccccc1[N+](=O)[O-]` 104 % of control

Determine from records and report T/C for `Nc1nc(N)c2cc(Sc3ccc(Cl)cc3)ccc2n1` 86 % of control

Determine from records and report T/C for O=C(CNC(=O)c1ccccc1)OC(C(=O)O)c1ccc(F)cc1 (stereo not drawn) 96 % of control

Determine from records and report T/C for `O=C1CNC(=O)N1c1ccccc1` 98 % of control

Determine from records and report T/C for `O=[N+]([O-])c1ccc2c(N=Nc3c(O)ccc4ccccc34)c(O)cc(S(=O)(=O)O)c2c1` 109 % of control

Determine from records and report T/C for `O=Cc1ccc(N=Nc2c(S(=O)(=O)O)cc3cc(S(=O)(=O)O)cc(O)c3c2O)cc1` 100 % of control

Determine from records and report T/C for CC(=O)OCC1OC(n2nnc(CCl)c2CCl)C(OC(C)=O)C(OC(C)=O)C1OC(C)=O (stereo not drawn) 117 % of control

Determine from records and report T/C for `CCCCCCCCCCC(=O)CC` 104 % of control

Determine from records and report T/C for `Cc1cc(C)cc(OC(=O)/C=C/C(=O)Oc2cc(C)cc(C)c2)c1` 90 % of control

Determine from records and report T/C for `CCCCCSc1ncnc2nc[nH]c12` 104 % of control
